Method description: Cytotoxicity against human DU145 cells assessed as reduction in cell viability measured after 24 hrs by SRB assay
Format: functional, cell-based
Conditions: DU-145, 24 h
Metric name: pIC50
Units for pIC50: none; it is -log10 of a concentration expressed in mol/L.

Use the examples below as a reference point.
| Compound structure string | pIC50 |
| --- | --- |
| C=CCNC(=O)c1ccccc1[Se][Se]c1ccccc1C(=O)NCC=C | 4.69 |
| C=CCn1[se]c2ccccc2c1=O | 4.99 |
| Cn1[se]c2ccccc2c1=O | 4.52 |
| O=c1c2ccccc2[se]n1C1CCCCC1 | 5.24 |
| CCCCn1[se]c2ccccc2c1=O | 4.68 |

Consider the record given below.
Prompt: Returns the measured pIC50 for the input compound. Input: "CC(C)CCn1[se]c2ccccc2c1=O"
Completion: 4.52
